# procedure_details: yeast growth modulation, basal conditions, primary screen, YJM789 clinical isolate, OD600, 24 h (AID 1089);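 note: growth of clinical yeast isolate S. cerevisiae YJM 789 seeded 1000 cells per well; test concentration not given here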
# conditions: S. cerevisiae YJM789 growth, higher = more signal, called active from +8 up or from −8 down
Tag: 1 (yes) if measured z-score is not below 0.1, 0 (no) if it is.

molecule: CCCN1C(=O)[C@@]2(CCS(=O)(=O)c3ccccc3)N=C(c3ccc(OCCCO)cc3)O[C@H]2c2ccccc21
classification: 1 (yes)
//
molecule: C#CCCCON=C1C[C@@H](O)[C@@H](O)[C@@H]2[C@@H]3C(=O)N(Cc4ccc5c(c4)OCO5)C(=O)[C@@H]3CC[C@@H]12
classification: 1 (yes)
//
molecule: C=CC[C@]1(C(=O)OC)N=C(c2ccc(OCCCO)cc2)O[C@H]1c1ccccc1CN=[N+]=[N-]
classification: 0 (no)
//
molecule: O=C(NCC(F)(F)F)[C@@H]1c2ccccc2C(=O)N(Cc2ccccc2Cl)[C@H]1c1ccc(CO)cc1
classification: 0 (no)
//
molecule: [N-]=[N+]=NCc1ccccc1C[C@]1(C(=O)N2CCCCC2)N=C(c2ccc(OCCCO)cc2)O[C@H]1c1ccccc1CN=[N+]=[N-]
classification: 1 (yes)
//
molecule: C=CCc1cccc([C@H]2N[C@H](C(=O)O)CC[C@@H]2C)c1
classification: 1 (yes)
//
molecule: CC(C)[Si]1(C(C)C)O[C@@H](c2ccccc2)c2cc(C3CC3)nc(-c3ccc(Oc4ccccc4)cc3)c21
classification: 1 (yes)
//
molecule: CCOC(=O)C1=CCC(c2cccc3ccccc23)N(S(=O)(=O)c2ccc(C)cc2)C1 (centres undefined)
classification: 0 (no)
//
molecule: CCC(=O)[C@]12O[C@@]3([C@@H]4C(=O)OCC[C@@H]41)N(Cc1ccccc1)C(C)=C(C(=O)OC)[C@@H](c1ccccc1)N3C2=O
classification: 0 (no)
//
molecule: C=CCN(C(=O)C1N(c2ccc(CCO)cc2)C(=O)C2C(C(=O)O)C3C=CC21O3)C(C)(C)C (centres undefined)
classification: 0 (no)
//
molecule: Cc1ccc(S[C@]2(C(=O)NC(C)C)CC(=O)N(C3Cc4ccccc4C3)[C@@H]2c2ccc(CO)cc2)cc1
classification: 1 (yes)
//
molecule: COC(=O)Cn1c(C(=O)N2CCCC2)cc2c1C[C@H]1CN(C(=O)c3ccccc3)[C@@](Cc3ccccc3)(C(=O)OC)[C@@H]21
classification: 1 (yes)
//
molecule: COC(=O)C1=CC(c2ccc(CO)cc2)=CC(C2CC2)N(Cc2sc3ccccc3c2Cl)C=C1C(=O)OC (centres undefined)
classification: 0 (no)
//
molecule: C=CCN1C(=O)[C@]2(O[C@H](CCn3cc(CCO)nn3)[C@@H]([Si](C)(C)c3ccc(OC)cc3)[C@@H]2C)c2cc(NC(=O)c3ccc(OC)cc3)ccc21
classification: 1 (yes)

###

# procedure_details: inhibitors of hydroxyurea-induced Chk1 phosphorylation, primary screen, imaging, HeLa, phospho-Chk1 antibody, percent positive cells (AID 1186)
# conditions: hydroxyurea-induced phospho-Chk1 immunofluorescence imaging, higher = more signal
Everything with z-score lower than -0.4 is f; everything else, including exactly -0.4, is t.

smiles_notation: CCOC(=O)[C@H]1C/C=C/C[C@H](C(=O)OCC)C(=O)O[C@H]2[C@@H](OC)O[C@H](CO)[C@@H](OC(=O)Nc3ccc(Br)cc3)[C@@H]2OC1=O
classification: t

smiles_notation: Cc1ccc(S(=O)(=O)N2[C@@H](c3ccccc3)C(C(=O)O)=CC[C@H]2c2ccccc2)cc1
classification: t

smiles_notation: CC(C)(C)OC(=O)CC[C@]1(C(=O)N2CCCCC2)N=C(c2ccc(OCCCO)cc2)O[C@H]1c1ccccc1
classification: f

smiles_notation: COCCOC(=O)N1C(=O)[C@@]2(c3cc(C#CC4=CCCCC4)ccc31)[C@H](C(=O)NC[C@H](O)c1ccccc1)[C@H]1C(=O)O[C@H](c3ccccc3)[C@H](c3ccccc3)N1[C@@H]2c1ccccc1OCCO
classification: t

smiles_notation: COCCOC(=O)N1C(=O)[C@@]2(c3cc(C#CC4=CCCCC4)ccc31)[C@H](C(=O)NC[C@H](O)c1ccccc1)[C@H]1C(=O)O[C@H](c3ccccc3)[C@H](c3ccccc3)N1[C@@H]2c1ccc(OCCO)cc1
classification: t

###

# Tested on: Sam68 (KHDRBS1)
# procedure_details: Sam68 small-molecule binders, primary screen, biochemical, small-molecule microarray, 635 nm fluorescence (AID 1125);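 note: score merges 667 nm channel intensity with signal to noise over triplicate slides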
# conditions: small-molecule microarray binding, higher = more signal

compound: CC(C)[Si](OCC[C@H]1O[C@]2(C(=O)N(Cc3ccccc3)c3ccccc32)[C@@H](C)[C@@H]1[Si](C)(C)O)(C(C)C)C(C)C
composite z-score: 0.0631
--
compound: C[N+](C)(C)CCCCNC(=O)[C@@H]1C[C@@H]2C(=O)N3CCC[C@H]3C(=O)N2[C@@H]1c1cccc(OCCO)c1
composite z-score: 1.04
--
compound: COCCOC(=O)N1C(=O)[C@@]2(c3cc(C#CCNC(N)=O)ccc31)[C@H](c1ccc(OCCO)cc1)N1[C@H](c3ccccc3)[C@H](c3ccccc3)OC(=O)[C@H]1[C@@H]2C(=O)Nc1nc2ccccc2s1
composite z-score: 0.289
--
compound: CCCCO[C@H]1C[C@H]2C(Br)=C[C@@]1(CO)C(=O)[C@]21CO1
composite z-score: 0.362
--
compound: CC(C)N1CC=CC23O[C@@H]4/C=C\CCCOC(=O)C4[C@H]2C(=O)N(CCO)[C@@H]3C1=O (some centres not stated)
composite z-score: 0.534
--
compound: COc1ccc([Si](C)(C)[C@H]2[C@H](CCO)O[C@@]3(C(=O)N(Cc4ccc(N5CCCCC5=O)cc4)c4ccccc43)[C@@H]2C)cc1
composite z-score: 1.3
--
compound: COc1ccc([Si](C)(C)[C@@H]2[C@@H](CCO)O[C@]3(C(=O)N(Cc4ccc(NC(=O)[C@H](C)O)cc4)c4ccccc43)[C@H]2C)cc1
composite z-score: 1.32

###

# procedure_details: modulators of HCV replicon luciferase signal, primary screen, HCV replication inhibitor project, Huh7 cells, luciferase reporter (AID 1109);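 note: huh7 hepatoma cells harbouring a luciferase neomycin HCV replicon reporter; luciferase luminescence as measure of HCV replicon replication; test concentration not given here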
# conditions: 48 h, higher = more signal

smiles_notation: CO[C@@H]1COC(=O)[C@H](COCc2ccccc2)NC(=O)CC=C[C@@H](C)[C@H](OC)COC(=O)[C@H](COCc2ccccc2)NC(=O)CC=C[C@H]1C
z-score: -0.0527

smiles_notation: CO[C@H]1COC(=O)[C@@H](C)NC(=O)CC=C[C@@H](C)[C@H](OC)COC(=O)CC=C[C@@H]1C
z-score: -0.355

smiles_notation: C=CC[C@@]12N=C(c3ccc(OCCCO)cc3)O[C@@H]1c1ccccc1CN(Cc1ccccc1)C2=O
z-score: -3.23

smiles_notation: COC(=O)C[C@H]1O[C@]2(C(=O)N(C)c3ccccc32)[C@@H](C)[C@@H]1[Si](C)(C)c1ccc(OC)cc1
z-score: -2

smiles_notation: COc1ccc([C@H]2C[C@H]3C(Br)=C[C@]2(OC)C(=O)[C@]32CO2)cc1
z-score: -2.26

smiles_notation: CO[C@@H]1COC(=O)[C@H](C)NC(=O)CC=C[C@@H](C)[C@H](OC)COC(=O)[C@H](C)NC(=O)CC=C[C@H]1C
z-score: -0.0787

smiles_notation: CC(=O)NCCCC[C@@H]1NC(=O)[C@@H]2C[C@H](C(=O)NCCCCCCN(C)C)[C@H](c3ccc(O)cc3)N2C1=O
z-score: 1.08

###

# procedure_details: modulators of HCV replicon luciferase signal, primary screen, HCV replication inhibitor project, Huh7 cells, luciferase reporter (AID 1109);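 note: huh7 hepatoma cells harbouring a luciferase neomycin HCV replicon reporter; luciferase luminescence as measure of HCV replicon replication; test concentration not given here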
# conditions: 48 h, higher = more signal
readout_label: z-score

compound: CC(C)C[C@@H]1NC(=O)[C@H](CC(C)C)NC(=O)[C@@]23C(=O)N[C@@H](Cc4ccccc4)C2[C@H](C)[C@@]2(C)O[C@H]2C3/C=C/CC/C=C/CNC1=O (stereo not given in full)
reported_result: -1.24
//
compound: O=C1OCC=C[C@H]2OC34C=CCN(Cc5ccccc5)C(=O)[C@H]3N(CCCCCO)C(=O)[C@@H]4[C@@H]12 (stereo not given in full)
reported_result: -0.615
//
compound: COCCOC(=O)N1C(=O)[C@@]2(c3cc(C#CCNC(N)=O)ccc31)[C@H](C(=O)N1CCCCCCC1)[C@H]1C(=O)O[C@H](c3ccccc3)[C@H](c3ccccc3)N1[C@@H]2c1ccccc1OCCO
reported_result: -2.1
//
compound: C[C@]1(C(=O)NCCN2CCOCC2)c2ccccc2C(=O)N(Cc2ccccc2)[C@H]1c1ccc(CO)cc1
reported_result: -0.326
//
compound: C=CC[C@@]1(C(=O)NCC(O)CO)N=C(c2ccc(OCCCO)cc2)O[C@@H]1c1ccccc1CN=[N+]=[N-] (stereo not given in full)
reported_result: -1.11
//
compound: CC(C)[Si]1(C(C)C)O[C@@H](c2ccccc2)c2cc(C3CC3)nc(-c3ccc(Oc4ccccc4)cc3)c21
reported_result: -0.176
//
compound: CCOC(=O)C[C@H]1[C@H](OC(=O)c2cc3ccccc3oc2=O)[C@@H](NC(=O)C2CCCCC2)c2cc(OCCCO)ccc2N1C(=O)c1ccc2ccccc2n1
reported_result: -0.26
//
compound: C#CCNC(/C=C/c1ccccc1)CO (stereo not given)
reported_result: 0.501
//
compound: COCCOC(=O)N1C(=O)[C@@]2(c3cc(C#CC4(O)CCCCCC4)ccc31)[C@H](C(=O)N1CCCCCCC1)[C@H]1C(=O)O[C@H](c3ccccc3)[C@H](c3ccccc3)N1[C@@H]2c1ccc(O)cc1
reported_result: -0.937
//
compound: C[C@H]1COC(=O)[C@H](Cc2ccccc2)NC(=O)[C@@H](C)COC(=O)[C@H](Cc2ccccc2)NC1=O
reported_result: -0.0223
//
compound: CN1C(=O)C2C=CC(C(O)c3ccc(N(C)C)cc3)N(Nc3ccc([N+](=O)[O-])cc3[N+](=O)[O-])C2C1=O (stereo not given)
reported_result: -0.353
//
compound: C=C(CCCC)/C(=C/C[C@H](OC(=O)c1ccncc1)c1cccc(OCCO)c1)c1cc(C(=O)OC)ccc1OC
reported_result: -2.61
//
compound: CCCC=C(CCC)[C@@H](NS(=O)(=O)c1cccc(C(F)(F)F)c1)c1ccc(C(=O)OC)cc1
reported_result: -0.0175
//
compound: CO[C@H]1COC(=O)[C@H](C)NC(=O)CC=C[C@@H](C)[C@H](NS(=O)(=O)c2ccc(C)cc2)COC(=O)[C@@H](OCc2ccccc2)C=C[C@@H]1C
reported_result: -0.179
//
compound: C=CCN1C(=O)[C@@]2(O[C@@H](CCn3cc([C@H](O)c4ccccc4)nn3)[C@H]([Si](C)(C)c3ccc(OC)cc3)[C@H]2C)c2cc(N3CCOC3=O)ccc21
reported_result: -3.71
//
compound: CCC1=C2CN(Cc3ccccc3Br)[C@@H]([C@@H](O)Cc3ccccc3)C2C=CCC1 (stereo not given in full)
reported_result: -2.97
//
compound: CN1C2C=C(c3ccc(CO)cc3)C(C3C(=O)N(C(N)=O)C(=O)C32)C1c1cccs1 (stereo not given)
reported_result: 0.374
//
compound: C=CCC1=C[C@H]2[C@H]([C@@H]3C=C[C@]2(CC=C)C(=O)[C@]32CO2)[C@@]2(CO2)C1=O
reported_result: -4.15
//
compound: COc1ccc(-c2cc3c(c(-c4ccccc4)n2)[Si](C(C)C)(C(C)C)O[C@H]3c2ccccc2)cn1
reported_result: -1.4
//
compound: CO[C@H]1COC(=O)CC=C[C@@H](C)COC(=O)[C@@H](C)NC(=O)CC=C[C@@H]1C
reported_result: 0.325
//
compound: O=[N+]([O-])c1ccc(C[n+]2ccc3ccc(O)cc3c2)o1
reported_result: -0.95
//
compound: C/C(=N\O)C(=O)NCCCCCNC(=O)OCc1ccccc1
reported_result: -0.0365
//
compound: COc1cccc([C@@H]2[C@@H](C)CC[C@H]3C(=O)N(C)[C@@H](C(C)C)C(=O)N23)c1
reported_result: 0.512
//
compound: CCOC(=O)C1=CCC(c2cccc3ccccc23)N(S(=O)(=O)c2ccc(C)cc2)C1 (stereo not given)
reported_result: -0.874
//
compound: CO[C@@H]1COC(=O)CC=C[C@@H](C)[C@H](OC)COC(=O)CC=C[C@H]1C
reported_result: 0.353
//
compound: COC(=O)C(CC#Cc1ccc2c(c1)[C@]1(C(=O)N2)[C@H](C(=O)N2CCCCCCC2)[C@H]2C(=O)O[C@H](c3ccccc3)[C@H](c3ccccc3)N2[C@@H]1c1ccc(O)cc1)C(=O)OC
reported_result: -0.789
//
compound: NC(=O)NCC#Cc1ccc2c(c1)[C@]1(C(=O)N2)[C@H](C(N)=O)[C@H]2C(=O)O[C@H](c3ccccc3)[C@H](c3ccccc3)N2[C@@H]1c1ccccc1OCCO
reported_result: -0.771
//
compound: CO[C@@H]1COC(=O)CC=C[C@H](C)COC(=O)[C@H](Cc2ccccc2)NC(=O)CC=C[C@H]1C
reported_result: 1.06
//
compound: COCCCNC(=O)[C@@]1(c2ccc([N+](=O)[O-])cc2)CC(=O)N(C2CCCCC2)[C@@H]1c1ccc(CO)cc1
reported_result: -0.558
//
compound: CC1=C([C@H](O)CCc2ccccc2)[C@H](CO)[C@@H]2C(=O)N(Cc3ccccc3)C(=O)[C@@H]2C1
reported_result: -0.266
